target: JAK1 (Homo sapiens); construct: purchased Thermo Fisher Scientific; assay: Z'-LYTE JAK1 kinase screen (Thermo Fisher Scientific); type: biochemical; conditions: test compound 1000 nm (so in the source); 1% DMSO; ATP at Km apparent
measure: % Inhibition 1000 nm (%)
Answer with a number only, understood to be in %.

Example molecules with recorded % Inhibition 1000 nm:
CNS(=O)(=O)C1CC2(CC(N(C)c3ncnc4[nH]ccc34)C2)C1 (single isomer, unassigned; enantiomer b) [Compound 27]    89
CN(c1ncnc2[nH]ccc12)C1CC2(C1)CC(S(=O)(=O)NC1CCCC1)C2 (stereo not shown) [Compound 10]    97
CN(c1ncnc2[nH]ccc12)C1CC2(C1)CC(S(=O)(=O)NC1CC1)C2 (stereo not shown) [Compound 5]    99

[in] If you can, please state the reported % Inhibition 1000 nm value of CNS(=O)(=O)C1CC2(CC(N(C)c3ncnc4[nH]ccc34)C2)C1 (single isomer, unassigned; enantiomer a) [Compound 26] .
[out] 98

----------
Here, each record is paired with measured % Inhibition 1000 nm data.
biological target: JAK1 (Homo sapiens, UniProt P23458); construct: purchased Thermo Fisher Scientific; experiment: Z'-LYTE JAK1 kinase screen (Thermo Fisher Scientific); type: biochemical; settings: test compound 1000 nm (so in the source); 1% DMSO; ATP at Km apparent
Sequence (P23458 whole entry): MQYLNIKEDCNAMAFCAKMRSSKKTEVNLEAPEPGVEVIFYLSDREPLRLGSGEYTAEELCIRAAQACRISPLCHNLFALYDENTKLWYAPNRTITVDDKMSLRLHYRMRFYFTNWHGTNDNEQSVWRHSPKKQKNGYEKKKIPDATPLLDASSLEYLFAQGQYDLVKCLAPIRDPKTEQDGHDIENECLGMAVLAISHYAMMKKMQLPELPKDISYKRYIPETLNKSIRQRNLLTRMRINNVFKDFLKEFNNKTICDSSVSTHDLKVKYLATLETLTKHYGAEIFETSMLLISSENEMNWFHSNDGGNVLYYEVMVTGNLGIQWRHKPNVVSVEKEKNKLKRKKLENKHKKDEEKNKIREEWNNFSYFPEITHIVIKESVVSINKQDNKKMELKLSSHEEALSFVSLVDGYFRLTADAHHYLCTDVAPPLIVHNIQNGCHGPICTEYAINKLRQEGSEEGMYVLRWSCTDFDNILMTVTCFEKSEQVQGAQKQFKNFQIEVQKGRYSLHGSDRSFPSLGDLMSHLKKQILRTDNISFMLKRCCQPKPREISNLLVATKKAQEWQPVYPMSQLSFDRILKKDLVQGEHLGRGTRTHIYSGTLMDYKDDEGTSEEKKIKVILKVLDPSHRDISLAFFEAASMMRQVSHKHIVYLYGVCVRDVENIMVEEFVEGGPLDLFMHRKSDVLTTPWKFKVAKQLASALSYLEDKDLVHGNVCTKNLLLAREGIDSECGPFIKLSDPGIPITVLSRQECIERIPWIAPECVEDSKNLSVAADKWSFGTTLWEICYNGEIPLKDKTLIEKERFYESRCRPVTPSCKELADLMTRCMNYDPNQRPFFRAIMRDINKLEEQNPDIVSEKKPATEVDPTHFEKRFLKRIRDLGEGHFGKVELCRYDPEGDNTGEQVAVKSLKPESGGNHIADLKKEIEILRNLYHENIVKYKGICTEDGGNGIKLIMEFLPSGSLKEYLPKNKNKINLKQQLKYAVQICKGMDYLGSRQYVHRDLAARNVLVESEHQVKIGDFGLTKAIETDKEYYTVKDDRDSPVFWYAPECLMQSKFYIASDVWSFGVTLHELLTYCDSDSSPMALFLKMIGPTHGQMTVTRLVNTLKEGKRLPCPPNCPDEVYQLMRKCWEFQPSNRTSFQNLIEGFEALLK

CNS(=O)(=O)C1CC2(CC(N(C)c3ncnc4[nH]ncc34)C2)C1 (stereo not shown) [Compound 25]    19%

Next compound, please.
[in] # input compound: CNS(=O)(=O)C1CC2(CC(N(C)c3ncnc4[nH]ccc34)C2)C1 (stereo not shown) [Compound 1] ; wanted: its % Inhibition 1000 nm
[out] 96%

----------
# inhibition at 0.01 µM listing for each entry below
biological target: JAK1 (Homo sapiens); construct: purchased Thermo Fisher Scientific; assay: Z'-LYTE JAK1 kinase screen (Thermo Fisher Scientific); type: biochemical; settings: test compound 10 nM; 1% DMSO; ATP at Km apparent
# answer = value followed by unit

Consider the worked cases shown below.
CC(C)NS(=O)(=O)C1CC2(CC(N(C)c3ncnc4[nH]ccc34)C2)C1 (centres unmarked)    23%
CN(c1ncnc2[nH]ccc12)C1CC2(CC(CNS(C)(=O)=O)C2)C1 (centres unmarked)    76%

[in] Need inhibition at 0.01 µM, item CN(c1ncnc2[nH]ccc12)C1CC2(CC(NS(=O)(=O)C3CCCC3)C2)C1 (centres unmarked)
[out] 33%

[in] Name the reported inhibition at 0.01 µM value associated with the compound CNS(=O)(=O)C1CC2(CC(N(C)c3ncnc4[nH]ccc34)C2)C1 (centres unmarked)
[out] 71%

[in] inhibition at 0.01 µM for CCNS(=O)(=O)C1CC2(CC(N(C)c3ncnc4[nH]ccc34)C2)C1 (centres unmarked) ?
[out] 52%

----------
target: JAK1 (Homo sapiens, UniProt P23458); construct: purchased Thermo Fisher Scientific; assay: Z'-LYTE JAK1 kinase screen (Thermo Fisher Scientific); assay type: biochemical; conditions: test compound 100 nM; 1% DMSO; ATP at Km apparent
Measured inhibition at 0.1 µM of individual entries
The reply should consist of the numeric value with the unit placed after it.

// below: answered molecules
CCS(=O)(=O)NCC1CC2(C1)CC(N(C)c1ncnc3[nH]ccc13)C2 (stereo not drawn) [Compound 23]    94%
CN(c1ncnc2[nH]ccc12)C1CC2(C1)CC(S(=O)(=O)NC(C)(C)C)C2 (stereo not drawn) [Compound 8]    82%

Kindly review the next molecule as well.
[in] For the molecule shown here, CC(C)CS(=O)(=O)NC1CC2(C1)CC(N(C)c1ncnc3[nH]ccc13)C2 (stereo not drawn) [Compound 19] , give the reported inhibition at 0.1 µM.
[out] 73%

----------
# inhibition at 0.01 µM per record follows
target: JAK1 (Homo sapiens); construct: purchased Thermo Fisher Scientific; assay: Z'-LYTE JAK1 kinase screen (Thermo Fisher Scientific); type: biochemical; details: test compound 10 nM; 1% DMSO; ATP at Km apparent
Kindly write the number and append the unit.

Take a look at these entries with their results.
CCCS(=O)(=O)NC1CC2(C1)CC(N(C)c1ncnc3[nH]ccc13)C2 (centres unmarked)    38%
CN(c1ncnc2[nH]ccc12)C1CC2(C1)CC(S(=O)(=O)NC1CC1)C2 (centres unmarked)    61%
CCS(=O)(=O)NC1CC2(C1)CC(N(C)c1ncnc3[nH]ccc13)C2 (centres unmarked)    28%
CN(c1ncnc2[nH]ccc12)C1CC2(CC(NS(=O)(=O)c3ccccc3Cl)C2)C1 (centres unmarked)    15%
CN(c1ncnc2[nH]ccc12)C1CC2(C1)CC(S(=O)(=O)NC(C)(C)C)C2 (centres unmarked)    37%

[in] Fill in: inhibition at 0.01 µM of CN(c1ncnc2[nH]ccc12)C1CC2(CC(NS(C)(=O)=O)C2)C1 (centres unmarked) is ___
[out] 31%

[in] Quick one: inhibition at 0.01 µM of CCCNS(=O)(=O)C1CC2(CC(N(C)c3ncnc4[nH]ccc34)C2)C1 (centres unmarked) ?
[out] 57%

[in] I am curious: what inhibition at 0.01 µM value has been reported for CN(c1ncnc2[nH]ccc12)C1CC2(C1)CC(S(=O)(=O)NC1CCC1)C2 (centres unmarked) ?
[out] 64%

[in] Data request, read-out inhibition at 0.01 µM, for CN(c1ncnc2[nH]ccc12)C1CC2(C1)CC(S(=O)(=O)N(C)C)C2 (centres unmarked)
[out] 55%

[in] Given the entry CN(c1ncnc2[nH]ccc12)C1CC2(CC(NS(=O)(=O)c3ccc(C(F)(F)F)cc3)C2)C1 (centres unmarked) , report its measured inhibition at 0.01 µM.
[out] 1%

[in] Can you share its inhibition at 0.01 µM? I mean this compound: CC(C)CS(=O)(=O)NC1CC2(C1)CC(N(C)c1ncnc3[nH]ccc13)C2 (centres unmarked)
[out] 27%

----------
Quick reference: % Inhibition 1000 nm of the listed items.
target: JAK1 (Homo sapiens, UniProt P23458); construct: purchased Thermo Fisher Scientific; assay: Z'-LYTE JAK1 kinase screen (Thermo Fisher Scientific); type: biochemical; conditions: test compound 1000 nm (so in the source); 1% DMSO; ATP at Km apparent
All answers are understood in %, so give the number only.

Completed entries (count: 3):
CCS(=O)(=O)NCC1CC2(C1)CC(N(C)c1ncnc3[nH]ccc13)C2 (centres unmarked)    97
CN(c1ncnc2[nH]ccc12)C1CC2(C1)CC(S(=O)(=O)N(C)C)C2 (centres unmarked)    98
CN(c1ncnc2[nH]ccc12)C1CC2(C1)CC(S(=O)(=O)NC(C)(C)C)C2 (centres unmarked)    94

[in] Return reported % Inhibition 1000 nm; argument: CN(c1ncnc2[nH]ccc12)C1CC2(CC(NS(=O)(=O)C3CCCC3)C2)C1 (centres unmarked)
[out] 97

[in] State the recorded % Inhibition 1000 nm for this entry: CN(c1ncnc2[nH]ccc12)C1CC2(C1)CC(S(N)(=O)=O)C2 (centres unmarked)
[out] 94

[in] Give its % Inhibition 1000 nm value. Item: CN(c1ncnc2[nH]ccc12)C1CC2(C1)CC(S(=O)(=O)NCC(F)(F)F)C2 (centres unmarked)
[out] 96

[in] Quick one: % Inhibition 1000 nm for CN(c1ncnc2[nH]ccc12)C1CC2(CC(NS(=O)(=O)c3ccc(C(F)(F)F)cc3)C2)C1 (centres unmarked) ?
[out] 92

[in] Query: % Inhibition 1000 nm; subject: CN(c1ncnc2[nH]ccc12)C1CC2(CC(NS(=O)(=O)CCC(F)(F)F)C2)C1 (centres unmarked)
[out] 98

----------
molecular target: JAK1 (Homo sapiens, UniProt P23458); construct: purchased Thermo Fisher Scientific; experiment: Z'-LYTE JAK1 kinase screen (Thermo Fisher Scientific); type: biochemical; settings: test compound 100 nM; 1% DMSO; ATP at Km apparent
measure: inhibition at 0.1 µM (%)
Write down the numeric answer in % and omit the unit.

Example cases with answers are listed next.
CN(c1ncnc2[nH]ccc12)C1CC2(CC(CNS(C)(=O)=O)C2)C1 (centres unmarked)    96
CN(c1ncnc2[nH]ccc12)C1CC2(CC(NS(=O)(=O)C3CCCC3)C2)C1 (centres unmarked)    82
CN(c1ncnc2[nH]ccc12)C1CC2(CC(NS(=O)(=O)c3ccccc3)C2)C1 (centres unmarked)    81

[in] // query inhibition at 0.1 µM value for entry CN(c1ncnc2[nH]ccc12)C1CC2(CC(NS(=O)(=O)c3ccc(Cl)cc3)C2)C1 (centres unmarked)
[out] 77

[in] Please report the recorded inhibition at 0.1 µM for CN(c1ncnc2[nH]ccc12)C1CC2(C1)CC(S(=O)(=O)N(C)C)C2 (centres unmarked) .
[out] 92

[in] What does the record list as inhibition at 0.1 µM for CN(c1ncnc2[nH]ccc12)C1CC2(CC(NS(=O)(=O)CCC(F)(F)F)C2)C1 (centres unmarked) ?
[out] 85

[in] Sample CC(C)S(=O)(=O)NC1CC2(C1)CC(N(C)c1ncnc3[nH]ccc13)C2 (centres unmarked) — what was its inhibition at 0.1 µM?
[out] 71

[in] Recorded inhibition at 0.1 µM of CNS(=O)(=O)C1CC2(CC(N(C)c3ncnc4[nH]cnc34)C2)C1 (centres unmarked) , please.
[out] 21
